# System: SNB-19
# protocolDescription: NCI tumour cell line growth inhibition, 48 h
Activity calls are given as the source filed them. No stated cut-off is given here; in the data, active = GI50 up to about 1.1 µM and inactive = higher.
measuredEndpoint: GI50

Solved cases below.
[
  {
    "molecule": "Cc1cn(C2CC(N)C(C(=O)NCC(=O)O)O2)c(=O)[nH]c1=O (stereo not given)",
    "result": "> 100 µM (inactive)"
  },
  {
    "molecule": "O=C(CNc1nccs1)Nn1cnc2ccc(S(=O)(=O)Nc3nccs3)cc2c1=O",
    "result": "> 100 µM (inactive)"
  },
  {
    "molecule": "COc1ccc(N2C(=O)C3c4[nH]c5cccc(Cl)c5c4C4CCC(C(C)(C)C)CC4C3C2=O)cc1 (stereo not given)",
    "result": "41.5 µM (inactive)"
  },
  {
    "molecule": "CCCC(=O)N[C@H]1C2C3CC4C5CC(C42)C1(C)C53 (stereo not given in full)",
    "result": "> 100 µM (inactive)"
  }
]

Field: next molecule
Entry Cc1c2ccncc2c(C)c2c1sc1ccccc12 , GI50 reported as 9.4 µM (inactive)
